Reported koff by item:
Biological target: T1, Inactive-C1s (Homo sapiens, UniProt P09871)
T1 construct: proenzyme (pro-C1s); also called pro-C1s
T1 sequence (single chain, looked up): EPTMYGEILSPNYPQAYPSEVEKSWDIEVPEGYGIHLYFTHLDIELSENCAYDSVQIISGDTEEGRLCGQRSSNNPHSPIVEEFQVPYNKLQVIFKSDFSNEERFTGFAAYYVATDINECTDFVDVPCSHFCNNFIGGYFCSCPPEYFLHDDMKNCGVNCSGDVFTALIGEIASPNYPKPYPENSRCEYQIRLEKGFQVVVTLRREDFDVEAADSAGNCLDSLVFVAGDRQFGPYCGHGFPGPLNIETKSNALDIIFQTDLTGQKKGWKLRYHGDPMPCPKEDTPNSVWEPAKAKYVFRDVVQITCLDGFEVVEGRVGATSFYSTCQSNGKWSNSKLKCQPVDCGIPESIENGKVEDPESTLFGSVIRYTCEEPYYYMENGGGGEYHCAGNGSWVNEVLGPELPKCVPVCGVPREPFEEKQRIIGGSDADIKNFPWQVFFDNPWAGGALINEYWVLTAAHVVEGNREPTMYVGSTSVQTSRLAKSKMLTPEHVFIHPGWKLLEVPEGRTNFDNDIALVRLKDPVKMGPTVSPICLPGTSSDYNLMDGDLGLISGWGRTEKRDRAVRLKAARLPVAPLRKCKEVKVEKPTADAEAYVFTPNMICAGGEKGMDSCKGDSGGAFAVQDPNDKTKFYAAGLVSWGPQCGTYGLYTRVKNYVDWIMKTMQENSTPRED
Test: kinetic binding measurement, method not stated; Table 10, pro-C1s
Endpoint name: koff

Binder: VH1/Vk3 (antibody, V domains shown, member of group m7; also called VH1/Vκ3; VH variant 1 + Vk variant 3) VH: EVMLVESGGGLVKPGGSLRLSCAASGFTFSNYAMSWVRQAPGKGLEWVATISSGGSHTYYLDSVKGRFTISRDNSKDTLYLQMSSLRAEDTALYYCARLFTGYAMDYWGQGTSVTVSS VL: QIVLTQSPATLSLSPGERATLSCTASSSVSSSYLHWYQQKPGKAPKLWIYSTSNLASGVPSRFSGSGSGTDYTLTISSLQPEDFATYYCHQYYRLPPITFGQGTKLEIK
Endpoint name: koff
Endpoint result: 0.000285 s⁻¹
//
Binder: VH1/Vk2 (antibody, V domains shown, member of group m7; also called VH1/Vκ2; VH variant 1 + Vk variant 2) VH: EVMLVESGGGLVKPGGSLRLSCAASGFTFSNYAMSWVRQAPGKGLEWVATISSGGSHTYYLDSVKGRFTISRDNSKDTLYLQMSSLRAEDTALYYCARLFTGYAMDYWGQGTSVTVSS VL: QIVLTQSPATLSLSPGERATMSCTASSSVSSSYLHWYQQKPGKAPKLWIYSTSNLASGVPSRFSGSGSGTDYTLTISSLQPEDFATYYCHQYYRLPPITFGQGTKLEIK
Endpoint name: koff
Endpoint result: 0.000249 s⁻¹
